Molecular target: human recombinant mGluR5 (Homo sapiens, UniProt P41594)
Sequence (P41594 21-1212): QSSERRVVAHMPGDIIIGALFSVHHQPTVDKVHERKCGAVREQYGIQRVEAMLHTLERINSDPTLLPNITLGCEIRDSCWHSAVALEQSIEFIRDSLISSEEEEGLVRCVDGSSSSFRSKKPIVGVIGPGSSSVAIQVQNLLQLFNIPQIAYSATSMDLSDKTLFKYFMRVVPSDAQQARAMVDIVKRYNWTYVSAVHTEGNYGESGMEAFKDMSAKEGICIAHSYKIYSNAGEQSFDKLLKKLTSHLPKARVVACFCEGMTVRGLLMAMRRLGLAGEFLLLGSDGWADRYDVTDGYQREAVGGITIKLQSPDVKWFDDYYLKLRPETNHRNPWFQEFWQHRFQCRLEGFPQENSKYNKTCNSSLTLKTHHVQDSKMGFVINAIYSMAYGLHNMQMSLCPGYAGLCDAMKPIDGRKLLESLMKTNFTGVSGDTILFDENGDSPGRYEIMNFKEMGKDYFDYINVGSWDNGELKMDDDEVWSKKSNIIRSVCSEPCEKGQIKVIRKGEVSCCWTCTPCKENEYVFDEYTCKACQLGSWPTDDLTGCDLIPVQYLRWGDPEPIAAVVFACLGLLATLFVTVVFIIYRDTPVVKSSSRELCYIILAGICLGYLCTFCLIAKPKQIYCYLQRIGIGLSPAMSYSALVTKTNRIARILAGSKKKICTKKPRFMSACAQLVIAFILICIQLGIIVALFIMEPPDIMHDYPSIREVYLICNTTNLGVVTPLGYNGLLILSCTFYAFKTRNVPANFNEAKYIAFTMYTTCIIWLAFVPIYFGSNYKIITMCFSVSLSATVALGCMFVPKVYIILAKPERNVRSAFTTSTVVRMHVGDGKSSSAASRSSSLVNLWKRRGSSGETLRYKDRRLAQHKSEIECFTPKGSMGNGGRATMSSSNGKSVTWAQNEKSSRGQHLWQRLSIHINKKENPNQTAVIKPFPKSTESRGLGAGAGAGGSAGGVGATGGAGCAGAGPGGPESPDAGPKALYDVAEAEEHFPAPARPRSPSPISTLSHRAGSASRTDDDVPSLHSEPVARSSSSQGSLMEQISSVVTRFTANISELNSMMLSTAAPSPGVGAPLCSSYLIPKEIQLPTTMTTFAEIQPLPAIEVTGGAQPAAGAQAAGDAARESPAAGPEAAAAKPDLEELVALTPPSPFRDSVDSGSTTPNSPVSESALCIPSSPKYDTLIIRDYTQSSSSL
Experiment: positive modulation of mGluR5, calcium based FLIPR assay
Conditions: HEK 293 cell line expressing human recombinant mGluR5; EC50 of the modulation from peak Ca fluorescence signal after glutamate at approx. 5% basal stimulation
pEC50: −log10 of the molar value.
measuredQuantity: pEC50

# annotated cases, reported pEC50 shown
- compound: "CCc1cc(-c2ccc(F)c(C)c2)nn1CC(=O)N1CCc2nc(C)oc2CC1"
  pEC50: 7.62
- compound: "COc1cc(C2=CCN(C(=O)Cn3nc(-c4ccc(C)c(C)c4)cc3-c3ccccc3)CC2)ncn1"
  pEC50: 7.55

1. CCc1cc(-c2ccc(C)c(F)c2)nn1CC(=O)N1Cc2nc(C)sc2C1
2. Cc1nnc(N2CCN(C(=O)Cn3nc(-c4ccc(OC(F)F)cn4)cc3-c3ccccc3)CC2)o1
Prompt line: Could you determine which record has the numerically smaller pEC50? Candidates: 1 and 2 Mark your selection by writing its label.
Response line: 1
(1: 6.07, 2: 6.70)

P. Cc1nc(C2CCN(C(=O)Cn3nc(-c4ccccc4)cc3-c3ccccc3)CC2)oc1C
Q. CNc1nc2c(s1)CCN(C(=O)Cn1nc(-c3ccc(F)c(C)c3)cc1C1CCCCC1)CC2
Prompt line: Sorting by pEC50 in descending order, would P or Q appear first? Mark your selection by writing its label.
Response line: Q

src = patent US8741892B2
